# protocolDetails: absolute recovery over mixed-bed multilayer solid-phase extraction; higher = better recovery
# testConditions: surface water; enrichment method: SPE
I'd be grateful if you could share measured absolute recovery for these entries.
Give just the number in %; leave the unit off.

absolute recovery reading for CC[NH+](CC)CC#CCOC(=O)C(O)(c1ccccc1)C1CCCCC1 (centres undefined) : 75.1

According to the records, this molecule Fc1ccc(C2(Cn3cncn3)OC2c2ccccc2Cl)cc1 (centres undefined) displays absolute recovery of 95.4

// sample COc1cc(OC)nc(NC(=O)[N-]S(=O)(=O)c2ncccc2C(=O)N(C)C)n1 , its absolute recovery was 97.3

# absolute recovery (molecule: CC1CC2C3CCC4=CC(=O)C=CC4(C)C3(F)C(O)CC2(C)C1(O)C(=O)CO (centres undefined) [Betamethasone] ) is 88.9

Just so you know, measured absolute recovery for CCCC1CC(C(=O)NC(C(C)Cl)C2OC(SC)C(O)C(O)C2O)[NH+](C)C1 (centres undefined) came out at 94.8

Lab note: measured absolute recovery of Cc1cccc(C)c1NC(=O)C1CCCC[NH+]1C (centres undefined) [Mepivacaine] was 74.7

Lab book: absolute recovery of O=P1(N(CCCl)CCCl)NCCCO1 (centres undefined) noted as 96.4

Entry CC(=O)C1CCC2C3CCC4=CC(=O)CCC4(C)C3CCC12C (centres undefined) ; absolute recovery = 97.3

Reported absolute recovery ( CC(C)(Oc1ccc(CCNC(=O)c2ccc(Cl)cc2)cc1)C(=O)[O-] ) = 98.8

----------
Answer each item with its documented absolute recovery.
# protocolDetails: absolute recovery over mixed-bed multilayer solid-phase extraction; higher = better recovery
# testConditions: nanopure water; enrichment method: SPE
Please give a number only; it is taken to be in %.

What the record says about CCCCc1nc(Cl)c(CO)n1Cc1ccc(-c2ccccc2-c2nn[nH]n2)cc1 [Losartan] : absolute recovery is 85.5

absolute recovery in this record for Cc1[nH]c(=O)n(C(C)(C)C)c(=O)c1Cl [Terbacil] : 96.1

Consider COc1ccc2c3c1OC1C(=O)CCC4C(C2)[NH+](C)CCC314 (stereo not given) [Hydrocodone] . Its measured absolute recovery is 82.5

absolute recovery reported for this molecule Nc1ncnc2c1ncn2C1OC(CO)C(O)C1O (stereo not given) [Adenosine] : 82

The molecule COc1cc(OC)nc(NC(=O)[N-]S(=O)(=O)N(C)S(C)(=O)=O)n1 [Amidosulfuron] showed absolute recovery equal to 94.7

----------
# protocolDetails: absolute recovery over mixed-bed multilayer solid-phase extraction; higher = better recovery
# testConditions: wastewater effluent; enrichment method: SPE
readoutLabel: absolute recovery (%)
Report the figure in % without appending any unit label.

Noted for Fc1ccc(Oc2ccnc3cc(Cl)cc(Cl)c23)cc1 : its absolute recovery reads 78.1

Reported absolute recovery of O=C(NCCc1ncc(C(F)(F)F)cc1Cl)c1ccccc1C(F)(F)F : 93

Entry CCCN(CCC)c1c([N+](=O)[O-])cc(S(N)(=O)=O)cc1[N+](=O)[O-] — recorded absolute recovery = 94

Cn1sccc1=O yielded absolute recovery of 11.7

Recorded absolute recovery (compound Nc1[nH]c2ccccc2[nH+]1 ): 91.9

Sure, the documented absolute recovery for C[NH+](C)CCC=C1c2ccccc2COc2ccc(CC(=O)[O-])cc21 is 91.2

// absolute recovery lookup, compound = CC(=O)Nc1ccc(S(=O)(=O)[N-]c2nccs2)cc1 , result: 94

Quick note, absolute recovery for C[NH2+]C(C)C(O)c1ccccc1 (centres undefined) landed at 89.3

In plain terms, COc1cccc2c1C(=O)c1c(O)c3c(c(O)c1C2=O)CC(O)(C(O)CO)CC3OC1CC([NH3+])C(O)C(C)O1 (centres undefined) has a documented absolute recovery of 73.7

Value of absolute recovery reported for the compound CCNC(=O)NC(=O)C(C#N)=NOC is 87.9

# absolute recovery of CC1COc2c(N3CCN(C)CC3)c(F)cc3c(=O)c(C(=O)[O-])cn1c23 (centres undefined) = 93.3

Query CC(=O)N(CC(O)CO)c1c(I)c(C(=O)NCC(O)CO)c(I)c(C(=O)NCC(O)CO)c1I (centres undefined) [Iohexol] yields absolute recovery of 66.4

The value of absolute recovery measured for the compound CC(=O)N(C)N(C(=O)C(=O)N(C)C)c1ccccc1 turned out to be 93.2

Query CC(C)N(C(=O)CCl)c1ccccc1 yields absolute recovery of 81.1

Given item C#CCOc1ccc(CCNC(=O)C(OCC#C)c2ccc(Cl)cc2)cc1OC (centres undefined) , the value recorded as its absolute recovery is 110

For O=c1c(-c2ccc(O)cc2)coc2cc([O-])cc(O)c12 the compound record lists absolute recovery as 99.5

Sample CC(=O)Nc1ccc(O)cc1 ; absolute recovery observed: 79.1

Kindly note the recorded absolute recovery for C[NH2+]CCC(Oc1ccccc1C)c1ccccc1 (centres undefined) , which is 79.7

Lookup result for Nc1c(Cl)c(F)nc(OCC(=O)[O-])c1Cl [Fluroxypyr (free acid)] ; measured absolute recovery: 91.7

This collection of values is drawn from the supplement of paper PMC6470124.
